Test system: Zea mays (ZEAMX)
Experiment: Pre-emergence Test (glasshouse, percentage damage to the plant)
Assay type: in vivo
Details: 1000 g/ha unless otherwise stated, five-point scale
Measured percentage damage to the plant, ZEAMX by item

# Compound, percentage damage to the plant, ZEAMX
data = [
    ("CCn1c(C)c(-c2ccc(C(F)(F)F)nc2)c(=O)c(C(=O)O)c1-c1ccc(Cl)c(Cl)c1", "1 (1=0-20%)"),
    ("CCn1c(C)c(-c2ccc(C(F)(F)F)c(Cl)c2)c(=O)c(C(=O)O)c1-c1ccc(Cl)c(Cl)c1", "1 (1=0-20%)"),
    ("CCc1ccc(-c2c(C)n(CC)c(-c3ccc(Cl)c(Cl)c3)c(C(=O)O)c2=O)cc1", "1 (1=0-20%)"),
    ("CCn1c(C)c(-c2ccc(Cl)cc2)c(=O)c(C(=O)O)c1-c1ccc(Cl)cc1", "1 (1=0-20%)"),
    ("CCn1c(C)c(-c2ccc(F)cc2OC)c(=O)c(C(=O)OC)c1-c1ccc(Cl)c(Cl)c1 [Compound 164]", 0),
    ("CCn1c(C)c(-c2ccc(C(F)F)cc2)c(=O)c(C(=O)O)c1-c1ccc(Cl)c(Cl)c1", "1 (1=0-20%)"),
    ("CCn1c(C)c(-c2ccc(Cl)cc2OC)c(=O)c(C(=O)O)c1-c1ccc(Cl)c(Cl)c1", "2 (2=21-40%)"),
    ("CCn1c(C)c(-c2ccc(C#N)cc2)c(=O)c(C(=O)O)c1-c1ccc(Cl)c(Cl)n1", "1 (1=0-20%)"),
    ("CCn1c(C)c(-c2ccc(Cl)cc2SC)c(=O)c(C(=O)O)c1-c1ccc(Cl)c(Cl)c1", 0),
    ("CCOc1cc(C)cc(-c2c(C)n(CC)c(-c3ccc(Cl)c(Cl)c3)c(C(=O)O)c2=O)c1", "1 (1=0-20%)"),
    ("CCn1c(C)c(-c2ccc(C(=O)N(C)C)cc2)c(=O)c(C(=O)O)c1-c1ccc(Cl)c(Cl)c1", "1 (1=0-20%)"),
    ("CCn1c(C)c(-c2cc(C)cs2)c(=O)c(C(=O)O)c1-c1ccc(Cl)cc1", "3 (3=41-60%)"),
    ("CCOc1cccc(-c2c(C)n(CC)c(-c3ccc(Cl)c(Cl)c3)c(C(=O)O)c2=O)c1", "1 (1=0-20%)"),
    ("CCn1c(C)c(-c2ccc(Cl)s2)c(=O)c(C(=O)O)c1-c1ccc(Cl)c(Cl)c1", "1 (1=0-20%)"),
    ("CCn1c(C)c(-c2ccc(F)cc2OC)c(=O)c(C(=O)O)c1-c1ccc(Cl)c(Cl)c1", "3 (3=41-60%)"),
    ("CCn1c(C)c(-c2ccc(C(F)(F)F)cc2)c(=O)c(C(=O)O)c1-c1ccc(Cl)c(Cl)n1", "2 (2=21-40%)"),
]

====

Test system: Amaranthus retoflexus (AMARE)
Assay: Pre-emergence Test (glasshouse, percentage damage to the plant)
Assay type: in vivo
Conditions: 1000 g/ha unless otherwise stated, five-point scale

# Compound, percentage damage to the plant, AMARE
records = [
    ("CCn1c(C)c(-c2cccs2)c(=O)c(C(=O)O)c1-c1ccc(Cl)cc1 [Compound 165]", "1 (1=0-20%)"),
    ("CCn1c(C)c(-c2ncco2)c(=O)c(C(=O)O)c1-c1ccc(Cl)c(Cl)c1 [Compound 27]", "1 (1=0-20%)"),
    ("CCn1c(C)c(-c2ccc(Cl)cc2)c(=O)c(C(=O)O)c1-c1ccc(Br)cc1F [Compound 133]", "2 (2=21-40%)"),
    ("CCn1c(C)c(-c2ccc(C(=O)N(C)C)cc2)c(=O)c(C(=O)O)c1-c1ccc(Cl)c(Cl)c1 [Compound 109]", "1 (1=0-20%)"),
]

====

Test system: Echinochloa crus-galli (ECHCG)
Test: Post-emergence Test (glasshouse, percentage damage to the plant)
Type: in vivo
Conditions: post-emergence spray, 1000 g/ha unless otherwise stated, evaluated after 13 days
Parameter Measured: Post-emergence Test ECHCG, percentage damage to the plant (five-point scale)

# Query Smiles, Result
rows = [
    ("CCn1c(C)c(-c2ccc(C(=O)N(C)C)cc2)c(=O)c(C(=O)O)c1-c1ccc(Cl)c(Cl)c1", "2 (2=21-40%)"),
    ("CCn1c(C)c(-c2ccc(Cl)nc2)c(=O)c(C(=O)O)c1-c1ccc(Cl)c(Cl)c1", "4 (4=61-80%)"),
    ("CCn1c(C)c(-c2cc(Cl)cc(Cl)c2)c(=O)c(C(=O)O)c1-c1ccc(Cl)c(Cl)c1", "1 (1=0-20%)"),
    ("CCn1c(C)c(-c2ccc(S(C)(=O)=O)cc2)c(=O)c(C(=O)O)c1-c1ccc(Cl)c(Cl)c1", "4 (4=61-80%)"),
]

====

Test system: Amaranthus retoflexus (AMARE)
Assay: Pre-emergence Test (glasshouse, percentage damage to the plant)
Assay type: in vivo
Details: 1000 g/ha unless otherwise stated, five-point scale
Measured percentage damage to the plant, AMARE by item

# Compound, Measurement Target, percentage damage to the plant, AMARE
measured = [
    ("CCn1c(C)c(-c2ccc(F)cc2OC)c(=O)c(C(=O)O)c1-c1ccc(Cl)c(Cl)c1", "Amaranthus retoflexus (AMARE)", 0),
    ("CCn1c(C)c(-c2cc(F)cc(F)c2)c(=O)c(C(=O)O)c1-c1ccc(Cl)c(Cl)c1", "Amaranthus retoflexus (AMARE)", "3 (3=41-60%)"),
    ("CCn1c(C)c(-c2ccc(C(F)(F)F)cc2)c(=O)c(C(=O)O)c1-c1ccc(Cl)c(Cl)n1", "Amaranthus retoflexus (AMARE)", "1 (1=0-20%)"),
    ("CCn1c(C)c(-c2ccc(C#N)cc2)c(=O)c(C(=O)O)c1-c1ccc(Cl)c(Cl)n1", "Amaranthus retoflexus (AMARE)", "1 (1=0-20%)"),
    ("CCn1c(-c2ccc(Cl)c(Cl)c2)c(C(=O)O)c(=O)c(-c2ccc(Cl)cc2)c1C(F)(F)F", "Amaranthus retoflexus (AMARE)", "5 (5=81-100%)"),
    ("CCn1c(C)c(-c2ccn(C)c(=O)c2)c(=O)c(C(=O)O)c1-c1ccc(Cl)c(Cl)c1", "Amaranthus retoflexus (AMARE)", "1 (1=0-20%)"),
    ("CCn1c(C)c(-c2ccccc2)c(=O)c(C(=O)O)c1-c1ccc(F)cc1F", "Amaranthus retoflexus (AMARE)", "1 (1=0-20%)"),
    ("CCn1c(C)c(-c2ccc(C(F)F)cc2)c(=O)c(C(=O)O)c1-c1ccc(Cl)c(Cl)c1", "Amaranthus retoflexus (AMARE)", "1 (1=0-20%)"),
    ("CCn1c(C)c(-c2ccnc(OC)c2)c(=O)c(C(=O)O)c1-c1ccc(Cl)c(Cl)c1", "Amaranthus retoflexus (AMARE)", "1 (1=0-20%)"),
    ("CCn1c(C)c(-c2ccc(C(F)(F)F)cc2)c(=O)c(C(=O)O)c1-c1ccnc(Cl)c1", "Amaranthus retoflexus (AMARE)", "1 (1=0-20%)"),
    ("CCn1c(C)c(-c2ccc([N+](=O)[O-])cc2)c(=O)c(C(=O)O)c1-c1ccc(Cl)cc1", "Amaranthus retoflexus (AMARE)", 0),
    ("CCOc1ccc(-c2c(C)n(CC)c(-c3ccc(Cl)c(Cl)c3)c(C(=O)O)c2=O)cc1", "Amaranthus retoflexus (AMARE)", "1 (1=0-20%)"),
    ("CCn1c(C)c(-c2ccc(SC)cc2)c(=O)c(C(=O)O)c1-c1ccc(Cl)c(Cl)c1", "Amaranthus retoflexus (AMARE)", "1 (1=0-20%)"),
    ("CCn1c(C)c(-c2ccc(Cl)c(F)c2)c(=O)c(C(=O)O)c1-c1ccc(Cl)c(Cl)c1", "Amaranthus retoflexus (AMARE)", "5 (5=81-100%)"),
    ("CCn1c(C)c(-c2cc(F)c(OC)c(F)c2)c(=O)c(C(=O)O)c1-c1ccc(Cl)c(Cl)c1", "Amaranthus retoflexus (AMARE)", "1 (1=0-20%)"),
    ("CCOc1cc(-c2c(C)n(CC)c(-c3ccc(Cl)c(Cl)c3)c(C(=O)O)c2=O)ccc1C(F)(F)F", "Amaranthus retoflexus (AMARE)", "1 (1=0-20%)"),
    ("CCn1c(C)c(-c2ccc(Cl)cc2OC)c(=O)c(C(=O)O)c1-c1ccc(Cl)c(Cl)c1", "Amaranthus retoflexus (AMARE)", "1 (1=0-20%)"),
    ("CCn1c(C)c(-c2ccc(Cl)c(Cl)c2)c(=O)c(C(=O)O)c1-c1ccc(Cl)cc1", "Amaranthus retoflexus (AMARE)", "2 (2=21-40%)"),
    ("CCn1c(C)c(-c2ccc(OC)nc2)c(=O)c(C(=O)O)c1-c1ccc(Cl)c(Cl)c1", "Amaranthus retoflexus (AMARE)", "5 (5=81-100%)"),
    ("CCn1c(C)c(-c2ccc([N+](=O)[O-])cc2)c(=O)c(C(=O)O)c1-c1ccc(Cl)c(Cl)c1", "Amaranthus retoflexus (AMARE)", "1 (1=0-20%)"),
    ("CCn1c(C)c(-c2ccc(Cl)cc2)c(=O)c(C(=O)O)c1-c1ccc(Cl)cn1", "Amaranthus retoflexus (AMARE)", 0),
    ("CCn1c(C)c(-c2cc(C)c(OC)c(C)c2)c(=O)c(C(=O)O)c1-c1ccc(Cl)c(Cl)c1", "Amaranthus retoflexus (AMARE)", "2 (2=21-40%)"),
    ("CCOc1cccc(-c2c(C)n(CC)c(-c3ccc(Cl)c(Cl)c3)c(C(=O)O)c2=O)c1", "Amaranthus retoflexus (AMARE)", "2 (2=21-40%)"),
    ("CCn1c(C)c(C2=CCCC2)c(=O)c(C(=O)O)c1-c1ccc(Cl)c(Cl)c1", "Amaranthus retoflexus (AMARE)", "1 (1=0-20%)"),
    ("CCn1c(C)c(-c2cc(F)cc(C#N)c2)c(=O)c(C(=O)O)c1-c1ccc(Cl)c(Cl)c1", "Amaranthus retoflexus (AMARE)", "2 (2=21-40%)"),
    ("CCn1c(C)c(-c2ccc(OC)c(C(F)(F)F)c2)c(=O)c(C(=O)O)c1-c1ccc(Cl)c(Cl)c1", "Amaranthus retoflexus (AMARE)", "1 (1=0-20%)"),
    ("CCn1c(C)c(-c2cc(F)cc(C#N)c2)c(=O)c(C(=O)O)c1-c1ccc(Cl)cc1", "Amaranthus retoflexus (AMARE)", "1 (1=0-20%)"),
    ("CCn1c(C)c(-c2ccc(C(C)(C)C)cc2)c(=O)c(C(=O)O)c1-c1ccc(Cl)c(Cl)c1", "Amaranthus retoflexus (AMARE)", "1 (1=0-20%)"),
    ("CCn1c(C)c(-c2ccc(Cl)cc2C)c(=O)c(C(=O)O)c1-c1ccc(Cl)c(Cl)c1", "Amaranthus retoflexus (AMARE)", "1 (1=0-20%)"),
    ("CCn1c(C)c(-c2ccc(Cl)c(C#N)c2)c(=O)c(C(=O)O)c1-c1ccc(Cl)c(Cl)c1", "Amaranthus retoflexus (AMARE)", "3 (3=41-60%)"),
    ("CCn1c(C)c(-c2ccc(F)cc2OC)c(=O)c(C(=O)OC)c1-c1ccc(Cl)c(Cl)c1 [Compound 164]", "Amaranthus retoflexus (AMARE)", 0),
]
